As shown below, each of these substances has a reported half-life value.
Test: Pharmacokinetic analysis in mouse
Type: in vivo
Settings: in vivo, 3 mg/kg
Starred links: 1 amine or outer side, 2 acyl side, 3 side chain; linkers in the order of their positions; H or OH if unused. Positions of bridges follow the written chain, without caps; N, C: chain ends. Non-standard residues stand in square brackets, D forms with d. Chains are numbered I, II in the order given. X3 = O=C(CCCc1ccc(I)cc1)NCCOCCOCCOCCOCCOCCOCCOCCOCCOCCOCCn1cc(CCC(=O)NC(COCCC(=O)NCCOCCOCCOCCOCCOCCOCCOCCOCCOCCOCCn2cc(CCC(=O)[*:1])nn2)(COCCC(=O)NCCOCCOCCOCCOCCOCCOCCOCCOCCOCCOCCn2cc(CCC(=O)[*:2])nn2)COCCC(=O)NCCOCCOCCOCCOCCOCCOCCOCCOCCOCCOCCn2cc(CCC(=O)[*:3])nn2)nn1; X2 = O=C(CCOCCN(CCOCCC(=O)NCCOCCOCCOCCOCCOCCOCCOCCOCCOCCOCCn1cc(CCC(=O)[*:2])nn1)CCOCCC(=O)NCCOCCOCCOCCOCCOCCOCCOCCOCCOCCOCCn1cc(CCC(=O)[*:3])nn1)NCCOCCOCCOCCOCCOCCOCCOCCOCCOCCOCCn1cc(CCC(=O)[*:1])nn1; X1 = C(c1nc(C[*:2])nc(C[*:3])n1)[*:1]; hArg = N=C(N)NCCCC[C@H](N)C(=O)O; tBuAla = CC(C)(C)C[C@H](N)C(=O)O
Reply with just the number (in h).

[
  {
    "Substance": "I: Ac-CPYVAG[hArg][dA]TCL[tBuAla]CK-NH2 / II: Ac-CPYVAG[hArg][dA]TCL[tBuAla]CK-NH2 / III: Ac-CPYVAG[hArg][dA]TCL[tBuAla]CK-NH2 (linker I:1-I:10-I:13, II:1-II:10-II:13, III:1-III:10-III:13 via X1; linker I:14-II:14-III:14 via X2) [BCY18208]",
    "Unit Annotation": "h",
    "Value Observed": 0.3
  }
]

[Q] Any idea what half-life was measured for I: Ac-CPYVAG[hArg][dA]TCL[tBuAla]CK-NH2 / II: Ac-CPYVAG[hArg][dA]TCL[tBuAla]CK-NH2 / III: Ac-CPYVAG[hArg][dA]TCL[tBuAla]CK-NH2 (linker I:1-I:10-I:13, II:1-II:10-II:13, III:1-III:10-III:13 via X1; linker I:14-II:14-III:14 via X3) [BCY19602] ?
[A] 3.1
